Data origin, for the record: patent US12077503B2

Listed below: Plant response rating, Blackgrass values for each entry.
- Test system: blackgrass (Alopecurus myosuroides)
- experiment summary: Test A postemergence
- Type: in vivo
- conditions: 125 g ai/ha, postemergence; visual rating after approx. 10 d, 0 to 100 scale (0 no effect, 100 complete control)
I'd appreciate a reply containing only the number, no unit.

Completed entries (count: 4):
# compound, quantity name, recorded measurement
data = [
    ("NS(=O)(=O)c1ccccc1NC(=O)C1C(=O)NCC1c1cccc(C(F)(F)F)c1 (centres unmarked)", "Plant response rating, Blackgrass", 0),
    ("O=C1NCC(c2cc(C(F)(F)F)ccc2F)C1C(=O)Nc1ccc(F)cc1F (centres unmarked)", "Plant response rating, Blackgrass", 20),
    ("O=C1NCC(c2cc(F)c(F)cc2F)C1C(=O)Nc1ccc(F)c(F)c1F (centres unmarked)", "Plant response rating, Blackgrass", 30),
    ("COc1cccc(NC(=O)C2C(=O)NCC2c2cccc(C(F)(F)F)c2)c1F (racemic)", "Plant response rating, Blackgrass", 0),
]

The compound CN1CC(c2ccc(C(C)(F)F)cc2)C(C(=O)Nc2ccccc2F)C1=O (centres unmarked) , tested on blackgrass (Alopecurus myosuroides), showed Plant response rating, Blackgrass of 50

---

- Test system: pigweed (Amaranthus retroflexus)
- experiment summary: Test A preemergence
- Type: in vivo
- conditions: Amaranthus retroflexus, pre-emergence, 240 h, 125 g ai/ha, preemergence; 0 to 100 scale where 0 is no effect and 100 is complete control; approx. 10 d; read-out: Pigweed plant response rating
quantity name: pest or weed control at 125 g/ha (%)
Hi! Could you send only the number? It should be in %, unit omitted.

See these solved cases before continuing.
# compound structure, test system, quantity name, recorded measurement
records = [
    ("CC(C)Oc1ccc([C@H]2CNC(=O)[C@@H]2C(=O)Nc2ccccc2F)cc1", "pigweed (Amaranthus retroflexus)", "pest or weed control at 125 g/ha", 0),
    ("CN1C[C@H](c2ccc(C(F)(F)F)nc2)[C@@](C)(C(=O)Nc2ccc(F)c(F)c2F)C1=O", "pigweed (Amaranthus retroflexus)", "pest or weed control at 125 g/ha", 90),
    ("CN1C[C@H](c2csc(C(F)F)c2)[C@@H](C(=O)Nc2ccccc2F)C1=O", "pigweed (Amaranthus retroflexus)", "pest or weed control at 125 g/ha", 0),
]

Now look at this one.
response.value for Cc1c(F)cccc1NC(=O)[C@H]1C(=O)N(C)C[C@@H]1c1cc(C(F)F)cs1 (field: pest or weed control at 125 g/ha) = 0

---

- Tested on: giant foxtail (Setaria faberii)
- experiment summary: Test A postemergence
- Type: in vivo
- conditions: Setaria faberi, post-emergence, 240 h, 500 g ai/ha, postemergence; 0 to 100 scale, 0 is no effect, 100 is complete control; read-out: Foxtail, Giant plant response rating
- Text: […]
quantity name: pest or weed control at 500 g/ha (%)
Kindly answer with a numeric value in %, unit omitted.

# compound, unit of measurement, pest or weed control at 500 g/ha
records = [
    ("CN1C[C@H](c2ccc(C#N)cc2)[C@@H](C(=O)Nc2cccc(F)c2F)C1=O", "%", 90),
]

compound CN1CC(c2cccc(O)c2)C(C(=O)Nc2cccc(F)c2F)C1=O (stereo not shown) , pest or weed control at 500 g/ha observed: 30

Entry CC(C)Oc1ccc([C@H]2CNC(=O)[C@@H]2C(=O)Nc2ccccc2F)cc1 , pest or weed control at 500 g/ha reported as 0

Short answer for Cc1ccc([C@H]2CCN(C)C(=O)[C@@H]2C(=O)Nc2cccc(F)c2F)cc1 : pest or weed control at 500 g/ha was 80

---

// values below are reported Plant response rating, Lambsquarters
- System: lambsquarters (Chenopodium album)
- experiment summary: Test C preemergence
- Assay type: in vivo
- conditions: 250 g ai/ha, scale 0 to 100, 0 no effect, 100 complete control
// keep it numeric: no unit symbol after the value

Examples with their reported Plant response rating, Lambsquarters follow.
# molecule, Plant response rating, Lambsquarters
rows = [
    ("O=C1NCC(c2cc(F)cc(Cl)c2)C1C(=O)Nc1cccc(F)c1F (stereo not drawn) [Compound 492]", 50),
    ("Cc1cccc(C2CN(C)C(=O)C2C(=O)Nc2cccc(F)c2F)c1 (stereo not drawn) [Compound 667]", 100),
    ("CN1CC(c2cccc(C(F)(F)F)c2)C(C(=O)Nc2cccc(F)c2F)C1=O (stereo not drawn) [Compound 636]", 65),
    ("CN1CC(c2cccc(OC(F)(F)C(F)F)c2)C(C(=O)Nc2ccc(F)cc2F)C1=O (stereo not drawn) [Compound 393]", 85),
    ("CN1CC(c2ccc(F)c(C(F)(F)F)c2)C(C(=O)Nc2cccc(F)c2F)C1=O (stereo not drawn) [Compound 613]", 75),
]

Turning to the following molecule.
# Plant response rating, Lambsquarters measured on lambsquarters (Chenopodium album) for item Cc1ccc(C2CN(C)C(=O)C2C(=O)Nc2cccc(F)c2F)cc1F (stereo not drawn) [Compound 464] = 90

---

Recorded plant injury at 250 g/ha, one value per entry.
- System: corn (Zea mays)
- experiment summary: Test G Pre-Emergence Protocol
- Assay type: in vivo
- conditions: Zea mays, pre-emergence, 312 h, 250 g ai/ha, evaluated after 13 days, read-out: Corn damage rating (100=total damage to plant; 0=no damage to plant)
Give just the number in %; leave the unit off.

Known results for compounds:
# compound, plant injury at 250 g/ha, %
records = [
    ("COC(=O)c1cc([C@H]2CN(C)C(=O)[C@@H]2C(=O)Nc2cccc(F)c2F)ccc1F (racemic)", 0),
    ("CN1C[C@H](c2cccc(C(F)(F)F)c2)[C@@H](C(=O)Nc2ccc(O)cc2F)C1=O (racemic)", 0),
    ("COc1c(C)cc(C2CN(C)C(=O)C2C(=O)Nc2cccc(F)c2F)cc1C (stereo not drawn)", 80),
    ("CN1C[C@@H](c2ccc(C(F)(F)F)cc2)[C@H](C(=O)Nc2ccnc(Cl)c2F)C1=O (racemic)", 0),
    ("CN1C[C@H](c2ccc(C(F)(F)F)cc2)[C@@H](C(=O)Nc2nccc(C(F)(F)F)c2F)C1=O (racemic)", 0),
    ("CN1C[C@H](c2cc(Cl)cc(C(F)(F)F)c2)[C@@H](C(=O)Nc2ccccc2S(C)(=O)=O)C1=O (racemic)", 70),
]

Reported plant injury at 250 g/ha for Cc1conc1NC(=O)[C@@H]1C(=O)N(C)C[C@H]1c1ccc(C(F)(F)F)cc1 (racemic) was 0

Recorded plant injury at 250 g/ha (compound CN1C[C@H](c2ccc(C(F)(F)F)cc2)[C@@H](C(=O)Nc2ccc[n+]([O-])c2F)C1=O (racemic) ): 0

plant injury at 250 g/ha for Cc1c(F)cccc1NC(=O)[C@@H]1C(=O)N(C)C[C@H]1c1cccc(C(C)(C)O)c1 (racemic) is 60

Record CN1C[C@H](c2cccc(C(F)F)c2)[C@@H](C(=O)Nc2ccccc2S(C)(=O)=O)C1=O (racemic) . Reported plant injury at 250 g/ha: 0

Measured plant injury at 250 g/ha, Cc1cc(C2CN(C)C(=O)C2C(=O)Nc2cccc(F)c2F)cc(C)c1Cl (stereo not drawn) : 30

---

- Test system: redroot pigweed (Amaranthus retroflexus)
- experiment summary: Test G Post-Emergence Protocol
- Type: in vivo
- conditions: Amaranthus retroflexus, post-emergence, 312 h, 62.5 g ai/ha, evaluated after 13 days, 100=total damage to plant, 0=no damage to plant, read-out: Pigweed, Redroot damage rating
quantity name: pest or weed control at 62.5 g/ha (%)
Value expressed in %; do not type the unit.

# molecule, test system, quantity name, recorded measurement
rows = [
    ("CCOc1cc([C@@H]2CN(C)C(=O)[C@H]2C(=O)Nc2cccc(F)c2F)cc(C(F)(F)F)n1 (racemic)", "redroot pigweed (Amaranthus retroflexus)", "pest or weed control at 62.5 g/ha", 20),
]

# pest or weed control at 62.5 g/ha (molecule: CN1C[C@H](c2ccc(C(F)(F)F)cc2)[C@@H](C(=O)Nc2cccnc2S(C)(=O)=O)C1=O (racemic) ) is 0

The molecule identified as CON1C[C@@H](c2cccc(C(F)(F)F)c2)[C@H](C(=O)Nc2cccc(F)c2F)C1=O (racemic) registered its pest or weed control at 62.5 g/ha at 0

---

- System: ragweed (common ragweed, Ambrosia elatior)
- experiment summary: Test A postemergence
- Type: in vivo
- conditions: Ambrosia artemisiifolia, post-emergence, 240 h, 125 g ai/ha, postemergence; visual injury after approximately 10 d; 0 to 100 scale (0 no effect, 100 complete control); read-out: Plant response rating, Ragweed
pest or weed control at 125 g/ha by entry:
State the answer as a number, implicitly in %.

# molecule, pest or weed control at 125 g/ha [%]
rows = [
    ("CSc1ccccc1NC(=O)[C@H]1C(=O)N(C)C[C@@H]1c1ccc(C(F)F)cc1", 0),
    ("CSc1ccccc1NC(=O)[C@H]1C(=O)N(C)C[C@@H]1c1ccc(C)c(C)c1", 0),
    ("CN1C[C@H](c2cc(F)cc(F)c2)[C@@H](C(=O)Nc2ccccc2S(C)(=O)=O)C1=O", 30),
    ("Cc1cc([C@H]2CNC(=O)[C@@H]2C(=O)Nc2ccc(F)cc2F)ccc1F", 0),
]

// pest or weed control at 125 g/ha lookup, molecule = CN1C[C@H](c2ccc(C(F)(F)F)cc2)[C@@H](C(=O)Nc2ccccc2C(F)(F)F)C1=O , result: 30

Measured pest or weed control at 125 g/ha, C/C=C/C1CNC(=O)C1C(=O)Nc1cccc(F)c1F (centres unmarked) : 0

pest or weed control at 125 g/ha reported for this molecule CC(F)(F)c1cccc([C@H]2CNC(=O)[C@@H]2C(=O)Nc2cccc(F)c2F)c1 : 20

In plain terms, CS(=O)(=O)c1ccccc1NC(=O)[C@H]1C(=O)NC[C@@H]1c1ccc(OC(F)F)cc1 has a documented pest or weed control at 125 g/ha of 50

response.value for CS(=O)(=O)c1ccccc1NC(=O)[C@H]1C(=O)NC[C@@H]1c1cccc2c1OC(F)(F)O2 (field: pest or weed control at 125 g/ha) = 0

Lab note: measured pest or weed control at 125 g/ha of CN1C[C@H](c2ccc3c(c2)CCC3)[C@@H](C(=O)Nc2ccccc2F)C1=O was 20

Measured pest or weed control at 125 g/ha, C=CCN1C[C@H](c2ccc(OC)c(F)c2)[C@@H](C(=O)Nc2cccc(F)c2F)C1=O : 0
